- EXPERIMENT DESCRIPTION: Stability of the seven analytes in rat plasma (method validation)
- Type: in vitro ADME
- STATED CONDITIONS: three freeze–thaw cycles, low QC level (0.25, 0.50 or 1.50 ng/mL), n = 6
PROPERTY NAME: Freeze-Thaw RSD
Could you kindly put the unit after your number?

Below are worked cases with known answers.
compound="COc1c2c(cc3oc(C)cc(=O)c13)OC(C(C)(C)OC1OC(CO)C(O)C(O)C1O)C2 [4-O-beta-D-glucosyl-5-O-methylvisamminol]" property_name="Freeze-Thaw RSD" recorded_value=2.40%
compound="COc1ccc(-c2coc3cc(O)ccc3c2=O)cc1O [Calycosin]" property_name="Freeze-Thaw RSD" recorded_value=8.29%
compound="COc1ccc(-c2coc3cc(O)ccc3c2=O)cc1 [Formononetin]" property_name="Freeze-Thaw RSD" recorded_value=10.06%
compound="CC(C)(O)C1CCC(C)(C2C(O)CC3(C)C4CC(OC5OC(CO)C(O)C(O)C5O)C5C(C)(C)C(OC6OCC(O)C(O)C6O)CCC56CC46CCC23C)O1 (centres unmarked) [Astragaloside]" property_name="Freeze-Thaw RSD" recorded_value=3.65%

GET /value?item= Cc1cc(=O)c2c(O)c3c(cc2o1)OC(C)(C)[C@@H](O[C@@H]1O[C@H](CO)[C@@H](O)[C@H](O)[C@H]1O)C3 [Sec-O-Glucosylhamaudol] &field=Freeze-Thaw RSD returns 4.77%

Numbers sourced from paper PMC6154636.
